Provide the recorded Potentiation (fold)^c, MIC^a / MIC^b for the entries that follow.
# Tested on: MRSA T144
# assay-summary: MIC assay of β-lactams in the presence of AMPs (potentiation)
# Assay type: cell-based, Staphylococcus aureus
# applied-conditions: antibiotic with 1/4 MIC GN1

Note Potentiation (fold)^c, MIC^a / MIC^b for the compound shown: "CC1(C)S[C@@H]2[C@H](NC(=O)[C@H](N)c3ccccc3)C(=O)N2[C@H]1C(=O)O"
64 fold

Note Potentiation (fold)^c, MIC^a / MIC^b for the compound shown: "CO/N=C(\C(=O)N[C@@H]1C(=O)N2C(C(=O)O)=C(COC(N)=O)CS[C@H]12)c1ccco1"
8 fold

Note Potentiation (fold)^c, MIC^a / MIC^b for the compound shown: CO/N=C(\C(=O)N[C@@H]1C(=O)N2C(C(=O)[O-])=C(C[N+]3(C)CCCC3)CS[C@H]12)c1csc(N)n1 [Cefepime]
4 fold

Note Potentiation (fold)^c, MIC^a / MIC^b for the compound shown: "Cc1onc(-c2ccccc2)c1C(=O)N[C@@H]1C(=O)N2[C@@H]1SC(C)(C)[C@@H]2C(=O)O"
32 fold

Note Potentiation (fold)^c, MIC^a / MIC^b for the compound shown: "CC1(C)S[C@@H]2[C@H](NC(=O)[C@H](C(=O)O)c3ccsc3)C(=O)N2[C@H]1C(=O)O"
16 fold

Note Potentiation (fold)^c, MIC^a / MIC^b for the compound shown: "CO/N=C(\C(=O)N[C@@H]1C(=O)N2C(C(=O)O)=C(CSc3nc(=O)c(=O)[nH]n3C)CS[C@H]12)c1csc(N)n1"
8 fold

Note Potentiation (fold)^c, MIC^a / MIC^b for the compound shown: "C[C@@H](O)[C@H]1C(=O)N2C(C(=O)O)=C(S[C@@H]3CN[C@H](C(=O)N(C)C)C3)[C@H](C)[C@H]12"
16 fold

Note Potentiation (fold)^c, MIC^a / MIC^b for the compound shown: CC1(C)S[C@@H]2[C@H](NC(=O)C(C(=O)O)c3ccccc3)C(=O)N2[C@H]1C(=O)O (some centres unmarked)
32 fold
